# Test system: Hs-578T
# PROTOCOL: NCI tumour cell line growth inhibition, 48 h
Calls of active or inactive are those of the source. Rule as the data show it: active = GI50 up to about 1.1 µM and inactive = higher.
Recorded measurements of GI50, one per entry

Req: Which measured GI50 value corresponds to O=C1/C(=C\c2cccc(Oc3ccccc3)c2)S(=O)(=O)C(c2ccccc2)N1c1cccc(Cl)c1 (centres undefined) ?
Resp: 65.5 µM (inactive)

Req: Which measured GI50 value corresponds to CSCCCNC(=O)c1csc(-c2csc(CCNC(=O)CNC(=O)CNC(=O)OC(C)(C)C)n2)n1 ?
Resp: > 100 µM (inactive)

---

# System: RPMI-8226
# PROTOCOL: NCI tumour cell line growth inhibition, 48 h
Calls of active or inactive are those of the source. No stated cut-off is given here; in the data, active = GI50 up to about 1.1 µM and inactive = higher.
TEST_READOUT: GI50

The examples below pair each entry with its known result.
SMILES_DATA | TEST_READOUT | VALUE
O=C1CSC2=NCC3(NN12)c1ccccc1-c1ccccc13 | GI50 | > 10 µM (inactive)
NNS(=O)(=O)c1ccc(/C=C2\NC(=O)NC2=O)cc1 | GI50 | > 100 µM (inactive)

Req: Which measured GI50 value corresponds to CC1=C(c2nc3ccccc3s2)C(=O)OC1(C)C ?
Resp: > 100 µM (inactive)

The measurements presented in this section are drawn from ChEMBL document CHEMBL1201862.
